Attribution: patent US20230183319A1

Give pKd for every item shown.
- system: L38D
- assay.remarks: SPR; 25C
Note on pKd: it is the negative log10 of concentration, concentration in mol/L.

Query :: Which pKd reading was recorded for the binder BMP10 (ligand) NAKGNYCKRTPLYIDFKEIGWDSWIIAPPGYEAYECRGVCNYPLAEHLTPTKHAIIQALVHLKNSQKASKACCVPTKLEPISILYLDKGVVTYKFKYEGMAVSECGCR ?
Result :: 9.82

Query :: Check GDF11 (ligand) NLGLDCDEHSSESRCCRYPLTVDFEAFGWDWIIAPKRYKANYCSGQCEYMFMQKYPHTHLVQQANPRGSAGPCCTPTKMSPINMLYFNDKQQIIYGKIPGMVVDRCGCS too.
Result :: 10.52

Query :: Can you check Activin A (ligand) GLECDGKVNICCKKQFFVSFKDIGWNDWIIAPSGYHANYCEGECPSHIAGTSGSSLSFHSTVINHYRMRGHSPFANLKSCCVPTKLRPMSMLYYDDGQNIIKKDIQNMIVEECGCS next?
Result :: 9.64

Query :: Now give it for BMP9 (ligand) SAGAGSHCQKTSLRVNFEDIGWDSWIIAPKEYEAYECKGGCFFPLADDVTPTKHAIVQTLVHLKFPTKVGKACCVPTKLSPISVLYKDDMGVPTLKYHYEGMSVAECGCR too.
Result :: 10.20
